biological target: ligand binding domain of human FXR (Homo sapiens (Human)); test: FXR ligand binding assay (LanthaScreen TR-FRET, SRC2-2 peptide recruitment); details: extent of activation relative to GW4064; read-out: % Efficacy
Entries and their Emax values follow.

chemical-smiles | assay-system | display-unit | Emax
O=C(NCCS(=O)(=O)C1CCOCC1)c1ccc(N2C[C@@H]3C[C@H]2C[C@H]3OCc2c(-c3c(Cl)cccc3Cl)noc2C2CC2)cc1F | ligand binding domain of human FXR (Homo sapiens (Human)) | % | 160
CCCS(=O)(=O)NC(=O)c1ccc(N2C[C@@H]3C[C@H]2C[C@H]3OCc2c(-c3c(Cl)cccc3Cl)noc2C2(F)CC2)c(F)c1 | ligand binding domain of human FXR (Homo sapiens (Human)) | % | 178
Cc1cc(C(=O)O)ccc1N1C(=O)[C@@H]2C[C@H]1C[C@H]2OCc1c(-c2c(Cl)cccc2Cl)noc1C1CC1 | ligand binding domain of human FXR (Homo sapiens (Human)) | % | 131
Cc1cc(C(=O)O)cc2sc(N3C[C@@H]4C[C@H]3C[C@H]4OC(=O)c3c(-c4c(Cl)cccc4Cl)noc3C3CC3)nc12 | ligand binding domain of human FXR (Homo sapiens (Human)) | % | 153
O=C(NS(=O)(=O)C1CC1)c1ccc(N2C[C@@H]3C[C@H]2C[C@H]3OC(=O)c2c(-c3c(Cl)cccc3Cl)noc2C2CC2)cc1 | ligand binding domain of human FXR (Homo sapiens (Human)) | % | 174
O=C(O)c1cc(C2CCCC2)c2nc(N3C[C@@H]4C[C@H]3C[C@H]4OCc3c(C4CCC5(CC4)CC5)noc3C3CC3)sc2c1 | ligand binding domain of human FXR (Homo sapiens (Human)) | % | 114

----------
target: ligand binding domain of human FXR (Homo sapiens (Human)); test: FXR ligand binding assay (LanthaScreen TR-FRET, SRC2-2 peptide recruitment); details: extent of activation relative to GW4064; read-out: % Efficacy
property: Emax (%)

chemical-smiles | reported
CCCS(=O)(=O)NC(=O)c1ccc(N2C[C@@H]3C[C@H]2C[C@H]3OCc2c(-c3c(Cl)cccc3Cl)noc2C2CC2)cc1F | 141
O=C(O)c1cc(O[C@H]2CCOC2)c2nc(N3C[C@@H]4C[C@H]3C[C@H]4OCc3c(-c4c(F)cccc4Cl)noc3C3CC3)sc2c1 | 146
O=C(O)c1ccc(N2C[C@@H]3C[C@H]2C[C@H]3OC(=O)c2c(-c3c(Cl)cccc3Cl)noc2C2CC2)c(F)c1 | 176
COc1cc(Cl)c(-c2noc(C3CC3)c2CO[C@@H]2C[C@@H]3C[C@H]2CN3c2nc3c(F)cc(C(=O)O)cc3s2)c(Cl)c1 | 130
O=C(O)c1cc(F)c2nc(N3C[C@@H]4C[C@H]3C[C@H]4OCc3c(-c4c(Cl)cc(O)cc4Cl)noc3C3CC3)sc2c1 | 134
O=C(NS(=O)(=O)C1CC1)c1ccc(N2C[C@H]3C[C@@H]2C[C@@H]3OCc2c(-c3c(Cl)cccc3Cl)noc2C2CC2)cc1 | 126

----------
biological target: ligand binding domain of human FXR (Homo sapiens (Human)); test: FXR ligand binding assay (LanthaScreen TR-FRET, SRC2-2 peptide recruitment); settings: extent of activation relative to GW4064; read-out: % Efficacy

chemical-smiles | assay-system | display-unit | Emax
C[C@@H]1[C@@H]2C[C@@H](C[C@H]2OCc2c(-c3c(Cl)cccc3Cl)noc2C2CC2)N1c1ccc(C(=O)NS(=O)(=O)C2CCOCC2)nc1 | ligand binding domain of human FXR (Homo sapiens (Human)) | % | 57
O=C(O)c1cc(OC(F)(F)F)c2nc(N3C[C@@H]4C[C@H]3C[C@H]4OC(=O)c3c(-c4c(Cl)cccc4Cl)noc3C3CC3)sc2c1 | ligand binding domain of human FXR (Homo sapiens (Human)) | % | 173
CC[N+](C)(CC)CCCCCCCCCCS(=O)(=O)NC(=O)c1ccc(N2C[C@@H]3C[C@H]2C[C@H]3OCc2c(-c3c(Cl)cccc3Cl)noc2C2CC2)c(F)c1 | ligand binding domain of human FXR (Homo sapiens (Human)) | % | 148

----------
Target: human Farnesoid X receptor ligand-binding domain/Gal4 DNA binding domain chimera (Homo sapiens (Human))
Sequence (Q96RI1 262-486, change not shown): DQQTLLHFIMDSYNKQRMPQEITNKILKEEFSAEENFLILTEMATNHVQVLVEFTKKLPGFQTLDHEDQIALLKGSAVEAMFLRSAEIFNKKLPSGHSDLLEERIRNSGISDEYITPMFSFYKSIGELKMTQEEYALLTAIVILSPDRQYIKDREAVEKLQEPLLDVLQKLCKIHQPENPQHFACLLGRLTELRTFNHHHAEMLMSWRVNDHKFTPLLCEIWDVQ
Sequence (P04386 1-147 partner): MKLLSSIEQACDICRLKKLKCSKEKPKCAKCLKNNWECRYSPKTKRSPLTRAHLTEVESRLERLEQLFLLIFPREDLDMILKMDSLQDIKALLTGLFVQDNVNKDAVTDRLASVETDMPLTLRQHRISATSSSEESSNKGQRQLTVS
Test: Cell-based assay of FXR activation (FXR-UAS-bla HEK 293T beta-lactamase reporter)
Settings: HEK-293T; extent of activation relative to GW4064; cellular FXR beta-lactamase reporter assay; read-out: % Efficacy
Description: FXR activation was measured using a cell line and procedure obtained from Life Technologies (Cat # K1691). FXR-UAS-bla HEK 293T cells contain a human Farnesoid X receptor ligand-binding domain/Gal4 DNA binding domain chimera stably integrated into the CellSensor® UAS-bla HEK 293T cell line. […] Activation of FXR by bound ligands results in transcriptional activation of the beta-lactamase reporter gene, which is detected via assay of beta-lactamase activity. […]
Some molecules, each annotated with its measured Emax.
property: Emax (%)

molecule | reported
CC(=O)OCCS(=O)(=O)NC(=O)c1ccc(N2C[C@@H]3C[C@H]2C[C@H]3OCc2c(-c3c(Cl)cccc3Cl)noc2C2CC2)cc1 [Compound I-211] | 105
CCCS(=O)(=O)NC(=O)c1ccc(N2C[C@@H]3C[C@H]2C[C@H]3OCc2c(-c3c(Cl)cccc3Cl)noc2C2CC2)cc1 [Compound I-59] | 103
O=C(O)c1ccc(N2C[C@@H]3C[C@H]2C[C@H]3OCc2c(-c3c(Cl)cccc3Cl)noc2C2(F)CC2)cc1F [Compound I-122] | 102

----------
// reported Emax per item
molecular target: ligand binding domain of human FXR (Homo sapiens (Human), UniProt Q96RI1); test: FXR ligand binding assay (LanthaScreen TR-FRET, SRC2-2 peptide recruitment); conditions: extent of activation relative to GW4064; read-out: % Efficacy
Sequence (Q96RI1 262-486): as the sequence (Q96RI1 262-486, change not shown) above
property: Emax (%)

compound | assay-system | reported
O=C(O[C@@H]1C[C@@H]2C[C@H]1CN2c1ccc(-c2nn[nH]n2)cc1)c1c(-c2c(Cl)cccc2Cl)noc1C1CC1 | ligand binding domain of human FXR (Homo sapiens (Human), UniProt Q96RI1) | 184
Cc1cccc(Cl)c1-c1noc(C2CC2)c1CO[C@@H]1C[C@@H]2C[C@H]1CN2c1ccc(C(=O)O)cc1 | ligand binding domain of human FXR (Homo sapiens (Human), UniProt Q96RI1) | 124
O=C(O)c1cc(F)c2nc(N3C[C@H]4C[C@@H]3C[C@@H]4OC(=O)c3c(-c4c(Cl)cccc4Cl)noc3C3CC3)sc2c1 | ligand binding domain of human FXR (Homo sapiens (Human), UniProt Q96RI1) | 56
O=C(O)c1ccc(N2C(=O)[C@@H]3C[C@H]2C[C@H]3OCc2c(-c3c(F)cccc3C3CC3)noc2C2CC2)cc1 | ligand binding domain of human FXR (Homo sapiens (Human), UniProt Q96RI1) | 148
O=C(O)c1c(F)cc(N2C[C@@H]3C[C@H]2C[C@H]3OCc2c(-c3c(Cl)cccc3Cl)noc2C2CC2)cc1F | ligand binding domain of human FXR (Homo sapiens (Human), UniProt Q96RI1) | 156
Cc1cccc(C)c1-c1noc(C2CC2)c1CO[C@@H]1C[C@@H]2C[C@H]1CN2c1ccc(C(=O)O)cc1F | ligand binding domain of human FXR (Homo sapiens (Human), UniProt Q96RI1) | 131
O=C(O)c1cc(C2CCC2)c2nc(N3C[C@@H]4C[C@H]3C[C@H]4OCc3c(-c4c(Cl)cccc4Cl)noc3C3CC3)sc2c1 | ligand binding domain of human FXR (Homo sapiens (Human), UniProt Q96RI1) | 134
CC1(C)CC(S(=O)(=O)NC(=O)c2ccc(N3C(=O)[C@@H]4C[C@H]3C[C@H]4OCc3c(-c4c(Cl)cccc4Cl)noc3C3CC3)cn2)CCO1 (stereo partly shown) | ligand binding domain of human FXR (Homo sapiens (Human), UniProt Q96RI1) | 138
O=C(O)c1ccc(N2C[C@@H]3C[C@H]2C[C@H]3OCc2c(-c3c(Cl)cccc3Cl)noc2C2CC2)c(C(F)(F)F)c1 | ligand binding domain of human FXR (Homo sapiens (Human), UniProt Q96RI1) | 126
N#Cc1c(F)cc(N2C[C@@H]3C[C@H]2C[C@H]3OCc2c(-c3c(Cl)cccc3Cl)noc2C2CC2)cc1F | ligand binding domain of human FXR (Homo sapiens (Human), UniProt Q96RI1) | 79
O=C(CCc1ccc(N2C[C@@H]3C[C@H]2C[C@H]3OCc2c(-c3c(Cl)cccc3Cl)noc2C2CC2)c(F)c1)OCCN(CCO)CCO | ligand binding domain of human FXR (Homo sapiens (Human), UniProt Q96RI1) | 154
O=C(O)c1cc(F)c2nc(N3C[C@@H]4C[C@H]3C[C@H]4OCc3c(-c4c(Cl)cccc4Cl)noc3C3CC3)sc2c1 | ligand binding domain of human FXR (Homo sapiens (Human), UniProt Q96RI1) | 153
O=C(O)c1cc(C2CC3(CCOCC3)C2)c2nc(N3C(=O)[C@@H]4C[C@H]3C[C@H]4OCc3c(-c4c(Cl)cccc4Cl)noc3C3CC3)sc2c1 | ligand binding domain of human FXR (Homo sapiens (Human), UniProt Q96RI1) | 82
